Please respond with reported % activity for every item in the list.
# targetOfAssay: CaMKIIδ(h) (Homo sapiens, UniProt Q13557)
# Sequence (Q13557 whole entry): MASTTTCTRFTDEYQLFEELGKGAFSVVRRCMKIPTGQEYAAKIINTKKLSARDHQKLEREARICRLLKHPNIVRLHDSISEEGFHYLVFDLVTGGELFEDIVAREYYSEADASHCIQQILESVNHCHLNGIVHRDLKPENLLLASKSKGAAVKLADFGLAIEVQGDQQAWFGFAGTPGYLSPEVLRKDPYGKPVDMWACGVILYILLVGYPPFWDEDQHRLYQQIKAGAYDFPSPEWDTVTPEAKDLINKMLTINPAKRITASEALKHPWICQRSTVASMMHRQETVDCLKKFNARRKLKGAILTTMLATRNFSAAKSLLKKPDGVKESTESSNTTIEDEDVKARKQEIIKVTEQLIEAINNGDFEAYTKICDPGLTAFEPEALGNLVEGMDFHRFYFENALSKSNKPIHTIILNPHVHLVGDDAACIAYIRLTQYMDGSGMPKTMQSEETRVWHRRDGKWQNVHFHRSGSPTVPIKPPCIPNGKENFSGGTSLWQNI
# protocolDescription: Kinase Profiling Assay
# Assay type: biochemical
# testConditions: 100 μM
One number for each entry, in %.

Below are worked cases with known answers.
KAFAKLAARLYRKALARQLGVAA [MMI-0400] : 2
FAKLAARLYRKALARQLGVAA [MMI-0300] : 1
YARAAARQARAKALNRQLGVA [MMI-0200] : 2

% activity for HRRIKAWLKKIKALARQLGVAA [MMI-0500] ?
1

###

# targetOfAssay: EphB4(h) (Homo sapiens, UniProt P54760)
# Sequence (P54760 16-987): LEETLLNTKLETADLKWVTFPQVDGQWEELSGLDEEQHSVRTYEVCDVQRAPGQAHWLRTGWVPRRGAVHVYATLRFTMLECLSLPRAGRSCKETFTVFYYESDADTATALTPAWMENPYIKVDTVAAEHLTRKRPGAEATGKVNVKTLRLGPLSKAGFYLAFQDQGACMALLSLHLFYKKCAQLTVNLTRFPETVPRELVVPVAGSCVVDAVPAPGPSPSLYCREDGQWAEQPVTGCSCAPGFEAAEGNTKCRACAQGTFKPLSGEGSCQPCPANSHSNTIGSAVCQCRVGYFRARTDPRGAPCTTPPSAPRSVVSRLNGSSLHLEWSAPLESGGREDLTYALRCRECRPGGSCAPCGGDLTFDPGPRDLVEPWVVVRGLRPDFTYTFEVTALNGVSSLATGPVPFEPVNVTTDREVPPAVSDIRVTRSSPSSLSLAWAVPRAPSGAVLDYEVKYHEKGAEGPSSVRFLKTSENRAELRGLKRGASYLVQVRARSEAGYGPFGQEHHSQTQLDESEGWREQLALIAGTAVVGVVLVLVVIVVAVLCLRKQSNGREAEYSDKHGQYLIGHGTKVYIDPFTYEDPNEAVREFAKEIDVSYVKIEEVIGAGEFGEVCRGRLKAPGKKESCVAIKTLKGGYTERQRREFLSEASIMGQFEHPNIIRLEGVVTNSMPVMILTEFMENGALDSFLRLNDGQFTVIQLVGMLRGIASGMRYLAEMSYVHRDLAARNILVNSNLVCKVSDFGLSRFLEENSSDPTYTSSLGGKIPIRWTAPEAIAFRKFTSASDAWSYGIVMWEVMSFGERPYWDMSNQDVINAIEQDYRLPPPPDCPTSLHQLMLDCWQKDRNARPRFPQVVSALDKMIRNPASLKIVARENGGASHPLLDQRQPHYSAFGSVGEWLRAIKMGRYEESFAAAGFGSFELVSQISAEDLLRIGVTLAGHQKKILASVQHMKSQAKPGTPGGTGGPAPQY
# protocolDescription: Kinase Profiling Assay
# Format: biochemical
# testConditions: 100 μM
experimentalReadout: % activity (%)
Answers are plain numbers, in %.

Below are some sequences; for each one, tell me its % activity.
1. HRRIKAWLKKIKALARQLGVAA [MMI-0500]
2. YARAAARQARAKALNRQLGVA [MMI-0200]
3. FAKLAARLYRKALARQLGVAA [MMI-0300]
4. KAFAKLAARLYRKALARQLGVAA [MMI-0400]

38
131
44
28

###

# targetOfAssay: EGFR(L861Q)(h) (Homo sapiens, UniProt P00533, L861Q)
# protocolDescription: Kinase Profiling Assay
# Type: biochemical
# testConditions: 100 μM
experimentalReadout: % activity (%)
Numbers only, in %.

Below are worked cases with known answers.
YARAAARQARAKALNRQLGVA [MMI-0200] : 74
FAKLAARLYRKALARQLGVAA [MMI-0300] : 25
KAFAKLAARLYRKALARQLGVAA [MMI-0400] : 22

Can you look up % activity on EGFR(L861Q)(h) (Homo sapiens, UniProt P00533, L861Q) for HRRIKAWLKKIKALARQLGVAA [MMI-0500] ?
15

###

# targetOfAssay: PKBα(h) (Homo sapiens)
# Sequence (P31749 whole entry): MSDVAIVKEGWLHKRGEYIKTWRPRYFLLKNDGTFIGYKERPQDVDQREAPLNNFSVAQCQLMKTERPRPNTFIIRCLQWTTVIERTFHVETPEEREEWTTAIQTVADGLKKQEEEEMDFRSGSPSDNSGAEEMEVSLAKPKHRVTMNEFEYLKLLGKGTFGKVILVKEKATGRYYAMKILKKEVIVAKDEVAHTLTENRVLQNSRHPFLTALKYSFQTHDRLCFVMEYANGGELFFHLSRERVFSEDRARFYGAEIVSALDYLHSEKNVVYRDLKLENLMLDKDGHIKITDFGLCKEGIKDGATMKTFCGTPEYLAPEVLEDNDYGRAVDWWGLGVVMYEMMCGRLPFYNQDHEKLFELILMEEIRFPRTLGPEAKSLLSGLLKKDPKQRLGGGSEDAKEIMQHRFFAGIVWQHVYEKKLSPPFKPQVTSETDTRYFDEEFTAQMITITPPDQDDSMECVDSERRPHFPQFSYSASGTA
# protocolDescription: Kinase Profiling Assay
# Format: biochemical
# testConditions: 100 μM
Please respond with reported % activity for every item in the list.
Numbers only, in %.

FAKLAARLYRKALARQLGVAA [MMI-0300] : 57
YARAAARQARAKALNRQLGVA [MMI-0200] : 110
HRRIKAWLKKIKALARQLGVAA [MMI-0500] : 30

% activity for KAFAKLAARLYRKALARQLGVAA [MMI-0400] ?
67

###

Please respond with reported % activity for every item in the list.
# targetOfAssay: CaMKIδ(h) (Homo sapiens, UniProt Q8IU85)
# Sequence (Q8IU85 whole entry): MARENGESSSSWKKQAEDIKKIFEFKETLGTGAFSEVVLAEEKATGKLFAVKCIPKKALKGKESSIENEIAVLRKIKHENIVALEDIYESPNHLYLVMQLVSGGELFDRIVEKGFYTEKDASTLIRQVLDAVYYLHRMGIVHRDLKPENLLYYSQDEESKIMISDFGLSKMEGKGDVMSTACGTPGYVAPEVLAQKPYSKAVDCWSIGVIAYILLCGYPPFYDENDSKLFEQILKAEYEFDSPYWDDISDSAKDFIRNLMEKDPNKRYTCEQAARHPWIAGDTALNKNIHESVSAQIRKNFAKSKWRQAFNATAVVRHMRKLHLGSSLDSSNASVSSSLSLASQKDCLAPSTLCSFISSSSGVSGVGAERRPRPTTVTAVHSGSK
# protocolDescription: Kinase Profiling Assay
# Type: biochemical
# testConditions: 100 μM
Numbers only, in %.

Below are worked cases with known answers.
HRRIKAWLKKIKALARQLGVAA [MMI-0500] : 0
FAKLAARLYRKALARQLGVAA [MMI-0300] : 10

Below are some sequences; for each one, tell me its % activity.
1. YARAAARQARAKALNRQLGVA [MMI-0200]
2. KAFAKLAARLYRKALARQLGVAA [MMI-0400]

47
17

###

Please respond with reported % activity for every item in the list.
# targetOfAssay: ULK3(h) (Homo sapiens)
# Sequence (Q6PHR2 1-472): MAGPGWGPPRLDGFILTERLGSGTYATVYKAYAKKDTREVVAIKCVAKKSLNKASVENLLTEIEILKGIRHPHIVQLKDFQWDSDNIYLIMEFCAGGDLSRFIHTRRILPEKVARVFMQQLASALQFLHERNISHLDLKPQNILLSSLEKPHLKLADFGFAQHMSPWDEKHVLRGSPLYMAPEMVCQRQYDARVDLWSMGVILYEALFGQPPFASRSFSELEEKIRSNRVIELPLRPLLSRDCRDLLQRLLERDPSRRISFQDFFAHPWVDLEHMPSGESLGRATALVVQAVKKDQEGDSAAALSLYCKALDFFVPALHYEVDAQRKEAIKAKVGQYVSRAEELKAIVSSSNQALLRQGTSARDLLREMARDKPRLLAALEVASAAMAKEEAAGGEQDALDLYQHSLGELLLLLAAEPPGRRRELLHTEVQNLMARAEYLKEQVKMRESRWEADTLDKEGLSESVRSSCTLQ
# protocolDescription: Kinase Profiling Assay
# Assay type: biochemical
# testConditions: 100 μM
Answers are plain numbers, in %.

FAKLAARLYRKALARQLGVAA [MMI-0300] : 167

Below are some sequences; for each one, tell me its % activity.
1. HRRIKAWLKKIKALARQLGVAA [MMI-0500]
2. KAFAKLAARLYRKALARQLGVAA [MMI-0400]

[177, 147]

% activity for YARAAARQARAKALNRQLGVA [MMI-0200] ?
164

###

Please respond with reported % activity for every item in the list.
# targetOfAssay: IRAK4(h) (Homo sapiens)
# Sequence (Q9NWZ3 1-460): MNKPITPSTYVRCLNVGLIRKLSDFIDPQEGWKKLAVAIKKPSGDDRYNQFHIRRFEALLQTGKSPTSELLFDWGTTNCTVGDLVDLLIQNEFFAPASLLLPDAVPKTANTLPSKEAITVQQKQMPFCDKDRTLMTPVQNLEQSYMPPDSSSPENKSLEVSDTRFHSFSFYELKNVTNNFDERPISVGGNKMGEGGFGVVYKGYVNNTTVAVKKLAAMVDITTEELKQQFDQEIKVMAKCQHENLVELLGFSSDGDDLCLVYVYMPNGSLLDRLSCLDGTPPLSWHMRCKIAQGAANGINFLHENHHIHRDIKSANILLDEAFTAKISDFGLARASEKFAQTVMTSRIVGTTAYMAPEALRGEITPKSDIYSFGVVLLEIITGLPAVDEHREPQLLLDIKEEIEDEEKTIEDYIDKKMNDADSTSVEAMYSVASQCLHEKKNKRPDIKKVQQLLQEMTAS
# protocolDescription: Kinase Profiling Assay
# Assay type: biochemical
# testConditions: 100 μM
One number for each entry, in %.

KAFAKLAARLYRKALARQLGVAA [MMI-0400] : 59
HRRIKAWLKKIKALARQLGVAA [MMI-0500] : 3
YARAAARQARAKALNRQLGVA [MMI-0200] : 110

With those in mind, consider the next sequence.
% activity for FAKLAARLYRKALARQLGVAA [MMI-0300] ?
59

###

# targetOfAssay: MST3(h) (Homo sapiens, UniProt Q9Y6E0)
# Sequence (Q9Y6E0 whole entry): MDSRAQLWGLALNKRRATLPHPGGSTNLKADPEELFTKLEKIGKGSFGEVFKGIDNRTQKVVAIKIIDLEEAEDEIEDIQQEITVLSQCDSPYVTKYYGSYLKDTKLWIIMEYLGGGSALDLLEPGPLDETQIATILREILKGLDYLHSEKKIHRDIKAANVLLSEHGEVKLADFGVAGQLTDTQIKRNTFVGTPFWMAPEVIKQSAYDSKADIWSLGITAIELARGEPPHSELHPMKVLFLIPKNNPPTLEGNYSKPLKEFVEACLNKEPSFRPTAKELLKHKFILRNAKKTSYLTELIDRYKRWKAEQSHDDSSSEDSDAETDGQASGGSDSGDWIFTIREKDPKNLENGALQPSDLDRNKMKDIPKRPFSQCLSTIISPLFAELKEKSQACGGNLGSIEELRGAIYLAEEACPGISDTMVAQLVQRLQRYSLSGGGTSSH
# protocolDescription: Kinase Profiling Assay
# Format: biochemical
# testConditions: 100 μM
Please respond with reported % activity for every item in the list.
Numbers only, in %.

Below are worked cases with known answers.
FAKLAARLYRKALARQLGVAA [MMI-0300] : 45
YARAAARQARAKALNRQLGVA [MMI-0200] : 95
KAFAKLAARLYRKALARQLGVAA [MMI-0400] : 36

With those in mind, consider the next sequence.
% activity for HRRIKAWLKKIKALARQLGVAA [MMI-0500] ?
4

From: patent US20190134153A1
